Hello, the source for this data is patent US9012443B2, in case you need it.

Recorded Nav1.7 Single Point Data IWQ (at […]) (%) for the following molecules
experimental_target: UniProt:Q15858
protocol_notes: Nav 1.7 IWQ in vitro assay (IonWorks Quattro population patch-clamp)
Assay type: cell-based
measurement_conditions: at […]
The number alone won't do; follow it with the unit.

| molecule | result |
| --- | --- |
| Cc1nsc(NS(=O)(=O)c2ccc3c(-c4ccc(Cl)cc4C)nccc3c2)n1 | 27% |
| Cc1cc2c(cnn2C)cc1-c1nccc2cc(S(=O)(=O)Nc3ccncn3)ccc12 | 45% |
| O=S(=O)(Nc1ccncn1)c1ccc2c(OCc3ccc(-n4ccnc4)cc3)nccc2c1 | 40% |
| COc1cc(C(=O)CCCCO)ccc1-c1nccc2cc(S(=O)(=O)Nc3ccncn3)ccc12 | 41.1% |
| Cc1cnc(OC2CCCN(C)C2)c(-c2nccc3cc(S(=O)(=O)Nc4ccncn4)ccc23)c1 (stereo not shown) | 30.2% |

## Input I'd like to know its Nav1.7 Single Point Data IWQ (at […]) (%). The molecule in question is CC1CN(c2cccc(F)c2)CCN1c1nccc2cc(S(=O)(=O)Nc3ccncn3)ccc12 (stereo not shown)
## Output 33.5%

## Input I'd like to know its Nav1.7 Single Point Data IWQ (at […]) (%). The molecule in question is Cc1cccc(CCCOc2nccc3cc(S(=O)(=O)Nc4ccncn4)ccc23)n1
## Output 25%

## Input I'd like to know its Nav1.7 Single Point Data IWQ (at […]) (%). The molecule in question is O=S(=O)(Nc1ccncn1)c1ccc2c(-c3cnn(-c4cccc(Cl)c4)c3)nccc2c1
## Output 54.7%

###

Recorded IC50 for the following compounds
experimental_target: UniProt Q15858
protocol_notes: Nav 1.7 IWQ in vitro assay (IonWorks Quattro population patch-clamp)
Type: cell-based
measurement_conditions: 293 cells stably transfected with Nav 1.7; first part of table; read-out: Nav 1.7 IWQ IC50
Give just the numeric value; nM need not be written.

| compound | quantitative_readout |
| --- | --- |
| O=S(=O)(Nc1nccs1)c1ccc2c(-c3ccc(C(F)(F)F)cc3-c3ccncc3)nccc2c1 [Example 71] | 20 |
| O=S(=O)(Nc1ncns1)c1ccc2c(-c3ccc(Cl)cc3-c3cn[nH]c3)cccc2c1 [Example 27] | 20 |
| CN1CC=C(c2cc(C(F)(F)F)ccc2-c2nccc3cc(S(=O)(=O)Nc4nccs4)ccc23)CC1 [Example 72] | 60 |
| O=S(=O)(Nc1ncns1)c1ccc2c(-c3ccc(Cl)cc3C(F)(F)F)nccc2c1 [Example 63] | 330 |
| O=S(=O)(Nc1ncns1)c1ccc2c(N3CCOC(c4ccccc4)C3)cccc2c1 (single isomer, unassigned) [14 (isomer 2)] | 1800 |

## Input Lookup: IC50 / UniProt Q15858 / COc1cc(OC)c(-c2nccc3cc(S(=O)(=O)Nc4ncns4)ccc23)c(OC)c1 [Example 60]
## Output 1560

## Input Lookup: IC50 / UniProt Q15858 / CN1CC=C(c2cc(C(F)(F)F)ccc2-c2cccc3cc(S(=O)(=O)Nc4ccncn4)ccc23)CC1 [Example 76]
## Output 70

###

experimental_target: Nav 1.7 (Homo sapiens (Human))
Sequence (Q15858 whole entry): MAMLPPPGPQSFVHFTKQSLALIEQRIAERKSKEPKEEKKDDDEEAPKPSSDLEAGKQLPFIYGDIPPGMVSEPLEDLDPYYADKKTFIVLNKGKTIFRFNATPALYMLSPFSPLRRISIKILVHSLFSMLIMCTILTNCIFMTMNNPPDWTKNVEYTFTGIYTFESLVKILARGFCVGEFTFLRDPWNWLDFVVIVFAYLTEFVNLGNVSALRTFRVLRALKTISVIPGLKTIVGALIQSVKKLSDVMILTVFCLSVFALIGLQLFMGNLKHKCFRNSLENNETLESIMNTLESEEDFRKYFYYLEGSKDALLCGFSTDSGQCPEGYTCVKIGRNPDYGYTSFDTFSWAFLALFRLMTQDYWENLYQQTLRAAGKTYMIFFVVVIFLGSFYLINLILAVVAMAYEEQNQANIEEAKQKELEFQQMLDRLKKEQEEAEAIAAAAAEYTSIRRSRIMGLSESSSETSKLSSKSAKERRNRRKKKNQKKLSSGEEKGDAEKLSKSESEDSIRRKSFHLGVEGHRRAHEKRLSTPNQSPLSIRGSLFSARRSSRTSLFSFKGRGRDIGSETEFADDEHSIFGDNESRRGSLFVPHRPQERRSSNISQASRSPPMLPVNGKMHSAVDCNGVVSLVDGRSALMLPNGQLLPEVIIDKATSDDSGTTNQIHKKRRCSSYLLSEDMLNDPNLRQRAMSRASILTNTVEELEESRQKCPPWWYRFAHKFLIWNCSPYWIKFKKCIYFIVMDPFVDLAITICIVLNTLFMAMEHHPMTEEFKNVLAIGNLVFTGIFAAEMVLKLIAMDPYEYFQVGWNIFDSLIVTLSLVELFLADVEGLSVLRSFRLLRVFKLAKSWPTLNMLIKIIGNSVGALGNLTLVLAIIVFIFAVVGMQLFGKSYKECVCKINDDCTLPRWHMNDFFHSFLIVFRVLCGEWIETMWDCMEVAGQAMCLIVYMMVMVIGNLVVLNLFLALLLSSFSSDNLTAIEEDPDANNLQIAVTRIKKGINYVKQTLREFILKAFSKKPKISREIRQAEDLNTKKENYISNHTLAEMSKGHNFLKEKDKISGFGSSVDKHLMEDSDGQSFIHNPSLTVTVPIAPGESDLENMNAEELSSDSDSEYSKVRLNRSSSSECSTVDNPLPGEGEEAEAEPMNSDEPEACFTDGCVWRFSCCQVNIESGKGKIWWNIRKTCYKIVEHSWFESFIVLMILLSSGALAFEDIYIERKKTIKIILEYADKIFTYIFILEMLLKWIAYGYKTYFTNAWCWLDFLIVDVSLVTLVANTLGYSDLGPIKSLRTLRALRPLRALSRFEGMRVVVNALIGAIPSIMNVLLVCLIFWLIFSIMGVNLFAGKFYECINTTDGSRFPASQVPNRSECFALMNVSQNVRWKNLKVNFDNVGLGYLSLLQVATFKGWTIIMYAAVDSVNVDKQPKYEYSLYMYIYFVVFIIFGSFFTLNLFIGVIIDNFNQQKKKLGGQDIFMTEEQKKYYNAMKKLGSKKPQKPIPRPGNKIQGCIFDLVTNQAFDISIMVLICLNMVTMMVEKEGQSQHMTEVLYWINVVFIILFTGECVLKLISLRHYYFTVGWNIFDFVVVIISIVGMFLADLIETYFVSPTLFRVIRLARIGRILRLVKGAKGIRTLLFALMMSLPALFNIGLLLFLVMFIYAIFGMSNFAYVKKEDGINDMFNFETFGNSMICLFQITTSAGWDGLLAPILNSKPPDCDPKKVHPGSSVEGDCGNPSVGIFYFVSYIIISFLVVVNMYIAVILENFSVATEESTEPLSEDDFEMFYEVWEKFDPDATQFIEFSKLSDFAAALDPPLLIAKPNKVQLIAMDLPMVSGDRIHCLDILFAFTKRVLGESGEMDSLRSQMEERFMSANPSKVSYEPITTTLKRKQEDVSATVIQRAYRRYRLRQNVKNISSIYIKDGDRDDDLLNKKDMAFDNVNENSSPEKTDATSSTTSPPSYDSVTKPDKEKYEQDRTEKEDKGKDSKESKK
protocol_notes: Nav 1.7 in vitro PX assay (PatchXpress whole cell voltage clamp)
Assay type: cell-based
measurement_conditions: 293 cells, human Nav1.7, partially inactivated state; read-out: Nav1.7 PX IC50 IP
Protocol: Nav 1.7 In Vitro PX Assay 293 cells stably transfected with human Nav1.7 were recorded in whole cell voltage clamp mode with the PatchXpress automated electrophysiology system (Molecular Devices, LLC, Sunnyvale, Calif.). Compound effects were measured on a partially inactivated state of the sodium channel. Cells were clamped to a holding potential yielding 20 to 50% inactivation. […] Peak sodium current was measured at the end of the compound addition period to determine percent inhibition. […]
IC50 under 400 nM gets true, anything at or over 400 nM gets false.

Illustrative cases are given below, each with its answer.
| compound | class_name |
| --- | --- |
| Cc1c(-c2nccc3cc(S(=O)(=O)Nc4nccs4)ccc23)cnn1-c1ccccc1 [Example 208, 2,2,2-TRIFLUOROACETATE] | false |
| O=S(=O)(Nc1ccncn1)c1ccc2c(-c3ccc(C(F)(F)F)cc3C3=CCNC3)cccc2c1 [Example 119] | true |
| COc1cc(C(F)(F)F)ccc1-c1ncc(O)c2cc(S(=O)(=O)Nc3nccs3)ccc12 [Example 232] | true |
| COc1cc(C(F)(F)F)ccc1-c1nccc2cc(S(=O)(=O)Nc3nc(C)cs3)ccc12 [Example 424] | false |
| COc1cc(C(F)(F)F)ccc1-c1ncnc2cc(S(=O)(=O)Nc3ccncn3)ccc12 [Example 262] | false |

## Input Lab log: compare recorded IC50 with 400 nM; is it strictly lower for O=S(=O)(Nc1nccs1)c1ccc2c(-c3ccc(C(F)(F)F)cc3CC(O)CO)nccc2c1 (stereo not drawn) [Example 230, 2,2,2-TRIFLUOROACETATE] ?
## Output false

## Input Lab log: compare recorded IC50 with 400 nM; is it strictly lower for COc1cc(C(F)(F)F)ccc1-c1nc(N(C)C)cc2cc(S(=O)(=O)Nc3nccs3)ccc12 [Example 223] ?
## Output false
